- PROTOCOL: Inhibition of Dengue Virus 2 NS2B-NS3 protease using Benzoyl-Nle-Lys-Arg-Arg-AMC as substrate incubated for 3 mins prior to substrate addition by fluorimetric analysis
- Parameters: species or system dengue virus type 2
pKi: −log10 of the molar value. Positions of bridges follow the written chain, without caps; N, C: chain ends. Residues, ends and D or L forms follow the SMILES beside them.
Values of pKi greater than or equal to 5 map to class 1; values below map to class 0.

These recorded examples may help you get a feel for the data.
COMPOUND	CATEGORY LABEL
N=C(N)NCCC[C@@H]1NC(=O)[C@H](CCCCN)NC(=O)[C@H](Cc2ccc(O)cc2)NC(=O)CNC(=O)[C@@H](N)CSSC[C@@H](C(=O)O)NC1=O (H-CGYKRC-OH; disulfide 1-6)	class 1
N=C(N)NCCC[C@@H]1NC(=O)C(CCCCN)NC(=O)CNC(=O)[C@@H](N)CSSC[C@@H](C(=O)O)NC(=O)[C@H](CO)NC(=O)[C@H](CCCCN)NC1=O (single isomer, unassigned)	class 1

Please indicate if the recorded pKi for CC(C)C[C@@H]1NC(=O)[C@H](CCCCN)NC(=O)CNC(=O)CNC(=O)[C@@H](N)CSSC[C@@H](C(=O)O)NC1=O (H-CGGKLC-OH; disulfide 1-6) meets or exceeds 5.
class 0

Further, for CC(C)C[C@@H]1NC(=O)[C@H](CCCCN)NC(=O)[C@H](CCCNC(=N)N)NC(=O)C(CCCCN)NC(=O)CNC(=O)[C@@H](N)CSSC[C@@H](C(=O)O)NC1=O (single isomer, unassigned) ?
class 1

What do you get for C[C@@H]1NC(=O)[C@@H](CS)NC(=O)CNC(=O)[C@H](CO)NC(=O)[C@H](CCCCN)NC(=O)[C@H](CCCNC(=N)N)NC(=O)C(CCCCN)NC(=O)CNC1=O (single isomer, unassigned) ?
class 1

Note, next up: CC(C)C[C@@H]1NC(=O)CNC(=O)[C@H](Cc2ccc(O)cc2)NC(=O)CNC(=O)[C@@H](N)CSSC[C@@H](C(=O)O)NC1=O (H-CGYGLC-OH; disulfide 1-6)
class 0

Try N=C(N)NCCC[C@@H]1NC(=O)C(CCCCN)NC(=O)CNC(=O)[C@@H](N)CSSC[C@@H](C(=O)O)NC(=O)[C@H](CCCNC(=N)N)NC1=O (single isomer, unassigned) next.
class 1

###

- PROTOCOL: Chemical stability assessed as compound remaining after 4 hrs in presence of trypsin
- Type: physicochemical
- DETAILS: read-out: Stability
METRIC NAME: remaining at 4 h (%)
Value expressed in %; do not type the unit.

I have this molecule here, C[C@@H]1NC(=O)[C@@H](CS)NC(=O)CNC(=O)[C@H](CO)NC(=O)[C@H](CCCCN)NC(=O)[C@H](CCCNC(=N)N)NC(=O)C(CCCCN)NC(=O)CNC1=O (single isomer, unassigned) , and I need its recorded remaining at 4 h.
50

###

- PROTOCOL: Drug degradation assessed as compound activity lost at 6.7 uM measured every 30 mins of 2.5 hrs in presence of Dengue Virus 2 NS2B-NS3 protease
- Format: physicochemical
- DETAILS: Dengue virus 2, Dengue virus 2 NS2B-NS3 protease; read-out: Drug degradation
METRIC NAME: metabolised at 2.5 h, 6.7 µM (%)
Write the number in % without appending the unit.

COMPOUND	UNIT ABBREV	metabolised at 2.5 h, 6.7 µM
CC(C)C[C@@H]1NC(=O)[C@H](CCCCN)NC(=O)[C@H](CCCNC(=N)N)NC(=O)C(CCCCN)NC(=O)CNC(=O)[C@@H](N)CSSC[C@@H](C(=O)O)NC1=O (single isomer, unassigned)	%	50

Moving on to the next compound.
What does the record list as metabolised at 2.5 h, 6.7 µM for N=C(N)NCCC[C@@H]1NC(=O)C(CCCCN)NC(=O)CNC(=O)[C@@H](N)CSSC[C@@H](C(=O)O)NC(=O)[C@H](CO)NC(=O)[C@H](CCCCN)NC1=O (single isomer, unassigned) ?
50
